- Study target: T1, 14-3-3σ, full-length, recombinant (human, UniProt P31947 1-248)
- T1 sequence (looked up): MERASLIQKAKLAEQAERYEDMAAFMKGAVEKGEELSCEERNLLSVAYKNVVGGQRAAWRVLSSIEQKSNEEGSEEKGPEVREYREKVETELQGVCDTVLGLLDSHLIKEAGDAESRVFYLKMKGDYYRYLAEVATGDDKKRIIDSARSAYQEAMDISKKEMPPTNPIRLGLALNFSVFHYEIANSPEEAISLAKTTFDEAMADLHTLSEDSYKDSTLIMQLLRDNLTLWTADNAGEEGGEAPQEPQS
- Measurement description: fluorescence polarisation
Where no end group is shown, it is not given here. [ ]: non-standard residue; d: D form. pT = C[C@@H](OP(=O)(O)O)[C@H](N)C(=O)O; FAM = fluorescein
Kindly supply the reported pKd values for the records listed here.
One number for each entry, as −log10 of the molar value.

Study these solved cases before continuing.
{"Binder": "{FAM}-KYYITGEAEGFPA[pT]G (peptide, UniProt P03372 581-595, looked up) [N-FAM-2 variant with C-terminal residue G]", "pKd": 4.44}
{"Binder": "{FAM}-KYYITGEAEGFPA[pT]I (peptide, UniProt P03372 581-595, looked up) [N-FAM-2 variant with C-terminal residue I]", "pKd": 7.22}

Give the value of pKd reported for the following: {FAM}-KYYITGEAEGFPA[pT]V (peptide, UniProt P03372 581-595, looked up) [fluorescein-labeled N-FAM-ERα-ctp (N-FAM-2)]
7.30
